# Test system: Wnt5a (protein binding on small-molecule microarray)
# assay.text: Wnt5a binders on small-molecule microarray, primary screen, biophysical, 635/667 nm fluorescence (AID 1142);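 note: fluorescence read at 667 nm with signal to noise per printed feature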
# conditions.used: 635 nm fluorescence, higher = more signal
measurement.name: composite z-score
Simply state the number, no unit and no words.

What composite z-score value was documented for this compound, `COC(=O)[C@@]1(Cc2ccccc2)[C@H]2c3cc(C(=O)N(C)C)n(CCSCCO)c3C[C@H]2CN1C(=O)c1ccccc1` ?
0.197

Likewise for `[N-]=[N+]=NCc1ccccc1[C@@H]1OC(c2ccc(OCCCO)cc2)=N[C@]1(Cc1ccccc1N=[N+]=[N-])C(=O)N1CCOCC1` ?
1.11

Next compound: C=C(C)C1C(=C)CN([C@H](CO)c2ccccc2)C1=O (stereo partly drawn)
-0.231

How about this compound: `COc1cc2c(cc1OC)CN(C(=O)[C@@H]1[C@H]3C(=O)O[C@H](c4ccccc4)[C@H](c4ccccc4)N3[C@H](c3ccc(O)cc3)[C@@]13C(=O)Nc1ccc(C#CC4(O)CCCCCC4)cc13)CC2`
0.382

Could you do the same for `CCCN1C(=O)[C@]2(CCS(=O)(=O)c3ccccc3)N=C(c3ccc(OCCCO)cc3)O[C@@H]2c2ccccc21` , please?
0.419

What do we get for `C=C(CCCC)/C(=C/C[C@@H](OC(C)=O)c1ccccc1OCCO)c1cnc2ccccc2c1` ?
0.0953

Then what about the compound `[N-]=[N+]=Nc1ccccc1C[C@]1(C(N)=O)N=C(c2ccc(OCCCO)cc2)O[C@H]1c1ccccc1` ?
0.498

Okay, and O=C1NC(=O)C2C1C=CC(C(O)C(c1ccccc1)c1ccccc1)N2Nc1ccc(Cl)cc1Cl (stereo not drawn) ?
0.223

###

# Tested on: Human papillomavirus type 1a E7 protein (residues 1-88)
# assay.text: HPV1a E7 small-molecule binders, primary screen, biochemical, small-molecule microarray, residues 1-88, 635 nm (AID 1129)
# conditions.used: small-molecule microarray binding, fluorescence 635 nm; higher = more signal
Listed compounds paired with reported composite z-score
// return just the number, without any unit appended

compound | value.observed
C#CCN(CC=C(C)C)[C@H](CO)c1ccccc1 | 0.729
O=C1NCC(=O)N2[C@@H]1C[C@@H](C(=O)O)[C@H]2c1cccc(OCCO)c1 | 1.34
CCCCCN1CC=CC23O[C@@H]4/C=C\CCCOC(=O)C4[C@H]2C(=O)N(C(CO)C(C)C)[C@@H]3C1=O (stereo partly drawn) | -0.376
CN(C)C(=O)[C@@]1(Cc2ccccc2CN=[N+]=[N-])N=C(c2ccc(OCCCO)cc2)O[C@H]1c1ccccc1 | 1.18
CCCN1C(=O)[C@]2(CCS(=O)(=O)c3ccccc3)N=C(c3ccc(OCCCO)cc3)O[C@@H]2c2ccccc21 | 1.21

Looking for the measured composite z-score of CN1C(=O)C2C=CC(C(O)c3cccs3)N(Nc3ccccc3)C2C1=O (stereo not drawn) , can you help?
1.16

Item: `Cc1ccc(S[C@]2(C(=O)NC3CC3)CC(=O)N(C3Cc4ccccc4C3)[C@@H]2c2ccc(CO)cc2)cc1`
0.445

Here is the next compound: `C=C/C=C/[C@H]1C(=C)CN([C@@H](Cc2ccccc2)C(=O)OC)[C@@H]1[C@H](O)Cc1ccccc1`
-0.748

Thanks! And `CC(=O)NCCCC[C@@H]1NC(=O)[C@@H]2C[C@H](C(=O)NCCCCCCNC(=O)CS)[C@H](c3cccc(OCCO)c3)N2C1=O` ?
1.1

Input `C=CCOC(=O)[C@@H]1[C@H]2C(=O)O[C@H](c3ccccc3)[C@H](c3ccccc3)N2[C@H](c2ccc(OCCOC(=O)[C@@H]3C[C@@H]4C(=O)N5CCC[C@H]5C(=O)N4[C@@H]3c3ccc(O)cc3)cc2)[C@@]12C(=O)Nc1ccc(I)cc12`
1.19

Now the compound CC(C)C(CO)N1C(=O)[C@@H]2[C@H]3C(=O)OCC=C[C@H]3OC23C=CCN(C(C)C)C(=O)[C@@H]13 (stereo partly drawn)
-0.349

Okay, and `C#CCNC(=O)[C@H](Cc1ccccc1)NC(=O)CCC(=O)O` ?
-0.912

Also need `C[C@]1(C(=O)NC2CC2)c2ccccc2C(=O)N(Cc2cc(C(F)(F)F)cc(C(F)(F)F)c2)[C@H]1c1ccc(CO)cc1` , thanks.
1.11

Consider next the compound `CN1C(=O)[C@]2(Cc3ccccc3)N=C(c3ccc(OCCCO)cc3)O[C@@H]2c2ccccc21` in the same way.
1.2

Queued: `C=CCNC(=O)[C@H]1[C@@H]2C(=O)O[C@@H](c3ccccc3)[C@@H](c3ccccc3)N2[C@@H](c2ccc(O)cc2)[C@]12C(=O)N(C(=O)OCCOC)c1ccc(C#CCNC(N)=O)cc12`
0.898

Cool, now N#Cc1ccc(NN2C(C(O)c3c(F)cccc3Cl)C=CC3C(=O)N(c4ccccc4)C(=O)C32)cc1 (stereo not drawn)
1.21

Consider next the compound `C=CCNC(=O)[C@H]1[C@@H]2C(=O)O[C@@H](c3ccccc3)[C@@H](c3ccccc3)N2[C@@H](c2ccccc2OCCO)[C@]12C(=O)Nc1ccc(C#CC3=CCCCC3)cc12` in the same way.
1.17

What would you report for COC(=O)C=C(CC(O)c1cccc(Cl)c1)OC (stereo not drawn) ?
1.15

Also need `C=CCOC(=O)[C@@H]1[C@H]2C(=O)O[C@H](c3ccccc3)[C@H](c3ccccc3)N2[C@H](c2ccc(OCCOC(=O)[C@@H]3C[C@@H]4C(=O)N[C@@H](CCCCN(C)C)C(=O)N4[C@@H]3c3ccc(O)cc3)cc2)[C@@]12C(=O)Nc1ccc(I)cc12` , thanks.
0.799

###

# Test system: Human papillomavirus type 1a E7 protein (residues 1-88)
# assay.text: HPV1a E7 small-molecule binders, primary screen, biochemical, small-molecule microarray, residues 1-88, 635 nm (AID 1129)
# conditions.used: small-molecule microarray binding, fluorescence 635 nm; higher = more signal
measurement.name: composite z-score

Recorded composite z-score, per entry:
molecule | composite z-score
CCCCC=C[C@@H](NC(=O)Oc1cccc(C(F)(F)F)c1)c1ccccc1 | 1.21
NCCCCCNC(=O)[C@@H]1C[C@@H]2C(=O)NCC(=O)N2[C@@H]1c1ccc(O)cc1 | 1.19

Attention now turns to another entry.
Query for Human papillomavirus type 1a E7 protein (residues 1-88): what composite z-score does the record show for CCOC(=O)[C@H]1CC=C2CC1C(=O)N1CCC[C@@H]1[C@@H]2O[Si](C)(C)C(C)(C)C (stereo partly drawn) ?
-0.708

###

Listed next: entries and their corresponding z-score.
# assay.text: PSAC antagonists in infected red cells, primary screen, cell-based, P. falciparum Indochina, OD700, 2 h (AID 1155);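 note: lysis reports solute entry through the parasite surface anion channel PSAC; channel blockers reduce lysis of infected cells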
# conditions.used: P. falciparum Indochina infected erythrocytes, osmotic lysis OD700; higher = more signal, called active from +8 up or from −8 down
Response field accepts a number only; no unit should be typed.

For orientation, consider the following solved cases.
substance.smiles | measurement.name | value.observed
COC(=O)[C@@]1(Cc2ccc(F)cc2)[C@@H]2[C@@H](CC(=O)[C@H]2CC(=O)C(=O)N(C)C)CN1C(=O)c1ccccc1 | z-score | 0.723
COc1ccc([Si](C)(C)[C@@H]2[C@@H](CCO)O[C@]3(C(=O)N(Cc4ccc(N5C(=O)COc6ccccc65)cc4)c4ccccc43)[C@H]2C)cc1 | z-score | 3.84
CCc1oc(CC[C@@H](CO)NC(=O)NCCn2cc(C3(O)CCCCC3)nn2)c(C(=O)OC)c1C(=O)OC | z-score | 7.39

We next turn to a different compound, shown below.
What does the data say about its z-score? Entry: `O=C1NCC(=O)N2[C@@H]1C[C@@H](C(=O)O)[C@H]2c1cccc(OCCO)c1`
1.34

###

# Test system: Plasmodium falciparum Sir2 (PF13_0152, Sir2A)
# assay.text: pfSir2 binders on small-molecule microarrays, primary screen, biochemical, small-molecule microarray, 635 nm fluorescence (AID 1098);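 note: score merges spot fluorescence intensity with its signal-to-noise ratio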
# conditions.used: small-molecule microarray binding, fluorescence 635 nm; higher = more signal
composite z-score values, listed per item
Enter the number alone.

Lab note: need composite z-score with Plasmodium falciparum Sir2 (PF13_0152, Sir2A) for entry `COc1ccc([Si](C)(C)[C@H]2[C@H](CCn3cc([C@H](O)c4ccccc4)nn3)O[C@@]3(C(=O)N(Cc4cccc(N5CCOC5=O)c4)c4ccccc43)[C@@H]2C)cc1` , please look it up.
0.463

###

# assay.text: MM1S cell viability effects, profiling panel, calcein-AM fluorescence, 48 h, basal (AID 1165);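 note: viability of MM1S multiple myeloma cells under basal unstimulated conditions; test concentration not given here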
# conditions.used: higher = more signal
measurement.name: z-score
Lab note: write the figure by itself, no unit.

For orientation, consider the following solved cases.
compound | value.observed
C=C(CCCC)C(=O)CC[C@H](OC(=O)c1cccnc1)c1ccccc1OCCO | -3.22
C=CCOC(=O)[C@H]1[C@@H]2C(=O)O[C@@H](c3ccccc3)[C@@H](c3ccccc3)N2[C@@H](c2ccc(OCCOC(=O)[C@H]3C[C@H]4C(=O)N5CCC[C@H]5C(=O)N4[C@H]3c3ccc(O)cc3)cc2)[C@]12C(=O)Nc1ccccc12 | -0.0596
C=CCOC(=O)[C@@H]1[C@H]2C(=O)O[C@H](c3ccccc3)[C@H](c3ccccc3)N2[C@H](c2ccc(OCCOC(=O)[C@@H]3C[C@@H]4C(=O)N[C@@H](Cc5ccccc5)C(=O)N4[C@@H]3c3ccc(O)cc3)cc2)[C@@]12C(=O)Nc1ccc(I)cc12 | 0.67

If you can, please state the reported z-score value of CCCCCN1CC=CC23O[C@@H]4/C=C\CCCOC(=O)C4[C@H]2C(=O)N(CCCO)[C@@H]3C1=O (stereo not given in full) .
0.759

How about this compound: `O=C1O[C@@H](c2ccccc2)[C@@H](c2ccccc2)N2[C@@H](c3ccc(OCCO)cc3)[C@]3(C(=O)Nc4ccccc43)[C@@H](C(=O)NC[C@H](O)c3ccccc3)[C@H]12`
-0.38
